Experiment: AUC in CD rat at 1000 mg/kg by LC/MS/MS analysis
Type: ADME, organism-based
Design: dose 1000 mg/kg
Settings: plasma
endpoint label: AUC (µg·h/mL)

1: CCCOc1ccc(-c2cc(C(C(=O)OC)n3cc4nc(-c5cccc(F)c5F)nc-4cn3)on2)c(C(F)(F)F)c1 (stereo not drawn)
2: CCCOc1ccc(-c2cc(C(C(=O)OCCOCCO)n3cc4nc(-c5cccc(F)c5F)nc-4cn3)on2)c(C(F)(F)F)c1 (stereo not drawn)
3: CCCOc1ccc(-c2cc(C(C(=O)OCCCO)n3cc4nc(-c5cccc(F)c5F)nc-4cn3)on2)c(C(F)(F)F)c1 (stereo not drawn)
Query :: Form: Sort by [AUC] Order [ ascending ] Give your ranking as a list of the labels in the requested order.
Result :: 3, 1, 2

Reference source for all entries: ChEMBL document CHEMBL3120081
